Where do these numbers come from? They come from PubChem BioAssay (NCI).

- Tested on: NCI-H460 lung
- Run description: NCI-60 one-dose screen, 48 h (100 = growth as untreated, 0 = no growth, -100 = all killed)
- Experimental parameters: 10 µM unless noted
Compounds without any hit were thinned out: in the full panel of roughly 83,000, 20% have a hit.
Binary call on growth with cut-off 60%: strictly below means satisfied, and equality or higher means not satisfied.

Before answering, review these 2 worked examples.
• NC(=O)Nc1cc(-c2cccc(F)c2)sc1C(=O)N[C@H]1CCCNC1 = satisfied
• ClCc1ccc(-c2ccc(Cn3cnc4c(Cl)nc(Cl)nc43)cc2)cc1 = satisfied

Exercise: growth strictly < 60% for this molecule? CCc1nc2ccc(Cc3ccc(C(=O)NO)cc3)cc2c(=O)n1CCc1ccccc1
Key: satisfied

Exercise: growth strictly < 60% for this molecule? C=CC(=O)Nc1cc2c(Nc3ccc(F)c(Cl)c3)ncnc2cc1C#CC(C)(C)N1CCN(C)CC1
Key: satisfied

Exercise: growth strictly < 60% for this molecule? CC(N)C(Cc1ccc(Cl)cc1)c1ccc(Cl)cc1 (stereo not given)
Key: not satisfied

Exercise: growth strictly < 60% for this molecule? CN(C)CCn1c(=O)c2c3cc4c(cc3n(CCN(C)C)c2c2ccc(Cl)cc21)OCO4
Key: satisfied

Exercise: growth strictly < 60% for this molecule? COc1ccc(OC)c(NC2=C(SCCc3ccccc3)C(=O)c3ccccc3C2=O)c1
Key: not satisfied

Exercise: growth strictly < 60% for this molecule? CO[C@@H](C(=O)N1Cc2[nH]nc(NC(=O)c3ccc(N4CCN(C)CC4)cc3)c2C1)c1ccccc1
Key: satisfied

Exercise: growth strictly < 60% for this molecule? O=C1C=CC2(NN=C(c3ccccc3)N2c2ccc(Cl)cc2)c2cccc(O)c21 (stereo not given)
Key: not satisfied
